# Assay Procedure: Cmax in Crl:CD(SD)(IGS) rat at 3 mg/kg, po
# Type: ADME, organism-based
# Design: dose 3 mg/kg, route oral
# Reported Conditions: in vivo
Observation Type: Cmax (ng/mL)
Your answer should be a plain number; it is taken to be in ng/mL.

Given the compound `CNC(=O)Nc1sc2nc(C)ccc2c1C(=O)N1CCC(N2CCC[C@]3(CC(=O)N(C(C)C)C3=O)C2)CC1` , what is its reported Cmax? 440

----------
# Test System: Acetyl-CoA carboxylase 1 (Homo sapiens, UniProt Q13085)
# Assay Procedure: Inhibition of human ACC1 using acetyl-coA as substrate incubated for 60 mins prior to substrate addition measured after 20 mins by malachite green assay
Overview of recorded pIC50 for various compounds
// pIC50 here means minus log10 of the molar concentration (mol/L)

Some solved cases for reference:
For the compound CCNC(=O)Nc1sc2ccccc2c1C(=O)N1CCC(N2CCCC3(C2)OC(=O)N(CC)C3=O)CC1 (racemic) , what pIC50 is on record? 6.72

Then CCN1C(=O)CC2(CCCN(C3CCN(C(=O)c4c(NC(N)=O)sc5ccccc45)CC3)C2)C1=O (centres undefined) ? 6.46

Then CCNC(=O)Nc1sc2ccccc2c1C(=O)N1CCC(N2CCCC3(CCN(CC)C3=O)C2)CC1 (racemic) ? 6.46

Let's switch to this compound now.
Query (compound): CCNC(=O)Nc1sc2ccccc2c1C(=O)N1CCC(N2CCCC3(CCN(C)C3=O)C2)CC1 (racemic) ; field requested: pIC50 6.29
